assay: MRT in Wistar rat at 0.3 to 3 mg/kg, iv; assay type: ADME, organism-based; conditions: in vivo, dose 0.3-3 mg/kg
readout-label: MRT (h)
Answers are plain numbers, in h.

-- ask Give reported MRT value for COc1cc(N)c(F)cc1C(=O)CCC1CCN(CC2CCCCC2)CC1.O=C(O)/C=C/C(=O)O
-- reply 1.15

----------
assay: Clearance in C57BL6 mouse at 0.3 to 3 mg/kg, iv; assay type: ADME, organism-based; conditions: in vivo, dose 0.3-3 mg/kg
readout-label: clearance (mL/min/kg)
Answers are plain numbers, in mL/min/kg.

-- ask Give reported clearance value for COc1cc(N)c(F)cc1C(=O)CCC1CCN(CC2CCCCC2)CC1.O=C(O)/C=C/C(=O)O
-- reply 35.5

----------
assay: Thermodynamic solubility of compound at pH 7.4 by classical shake-flask method; format: physicochemical; conditions: buffer, read-out: Therm_solubility
readout-label: solubility thermodynamic (µM)
Numbers only, in µM.

-- ask Give reported solubility thermodynamic value for COc1cc(N)c(F)cc1C(=O)CCC1CCN(CC2CCCCC2)CC1
-- reply 104

----------
biological target: 5-hydroxytryptamine receptor 4 (Homo sapiens, UniProt Q13639); assay: Partial agonist activity at human recombinant 5HT4 receptor expressed in […] cells assessed as cAMP accumulation in presence of serotonin by HTRF analysis; type: functional, cell-based
Sequence (Q13639 whole entry): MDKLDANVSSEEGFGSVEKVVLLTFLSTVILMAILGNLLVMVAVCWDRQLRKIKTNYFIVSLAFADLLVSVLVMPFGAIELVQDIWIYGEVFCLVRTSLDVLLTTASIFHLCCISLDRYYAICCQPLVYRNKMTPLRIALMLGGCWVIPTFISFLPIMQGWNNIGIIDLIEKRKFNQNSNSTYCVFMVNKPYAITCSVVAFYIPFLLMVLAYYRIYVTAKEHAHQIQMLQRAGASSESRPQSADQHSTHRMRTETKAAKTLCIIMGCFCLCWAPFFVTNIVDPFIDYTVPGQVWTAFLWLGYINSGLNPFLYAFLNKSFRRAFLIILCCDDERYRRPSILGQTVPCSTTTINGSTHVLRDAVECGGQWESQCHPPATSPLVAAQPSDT
readout-label: pEC50
One number for each entry, as −log10 of the molar value.

-- ask Give reported pEC50 value for COc1cc(N)c(F)cc1C(=O)CCC1CCN(CC2CCCCC2)CC1
-- reply 8.89

----------
experiment: Oral bioavailability in Wistar rat at 1 to 9 mg/kg; assay type: ADME, organism-based; conditions: in vivo, dose 1-9 mg/kg
readout-label: bioavailability (%)
Numbers only, in %.

-- ask Give reported bioavailability value for COc1cc(N)c(F)cc1C(=O)CCC1CCN(CC2CCCCC2)CC1
-- reply 3.6

----------
biological target: 5-hydroxytryptamine receptor 4 (Homo sapiens); assay: Binding affinity to human recombinant 5HT4 receptor assessed as inhibition constant incubated for 60 mins
readout-label: log10 of Ki (log10 of the value in nM)
In plain terms, each number is the log10 of measured Ki in nM.

- query-smiles: "COc1cc(N)c(F)cc1C(=O)CCC1CCN(CC2CCCCC2)CC1.O=C(O)/C=C/C(=O)O"
  test-result: 1.21
- query-smiles: "CCOc1cc(N)c(I)cc1C(=O)CCC1CCN(CC2CCCCC2)CC1"
  test-result: 1.93
- query-smiles: "Nc1ccc(C(=O)CCC2CCN(CC3CCCCC3)CC2)c(OCCF)c1"
  test-result: 1.60
- query-smiles: "COc1cc(NC(C)=O)c(Cl)cc1C(=O)CCC1CCN(CC2CCCCC2)CC1"
  test-result: 2.43
- query-smiles: "Nc1cc(OCCF)c(C(=O)CCC2CCN(CC3CCCCC3)CC2)cc1I"
  test-result: 2.72
- query-smiles: "O=C(CCC1CCN(CC2CCCCC2)CC1)c1ccc(O)cc1"
  test-result: 1.25
- query-smiles: "CCOc1cc(N)ccc1C(=O)CCC1CCN(CC2CCCCC2)CC1"
  test-result: 1.39

-- ask Give reported log10 of Ki value for COc1ccccc1C(=O)CCC1CCN(CC2CCCCC2)CC1
-- reply 2.08

----------
test: Cytotoxicity against human MRC5 cells assessed as growth inhibition at 10 uM incubated for 72 hrs by MTS assay relative to control; type: toxicity, cell-based; conditions: read-out: Activity
readout-label: inhibition at 72 h, 10 µM (%)
Answers are plain numbers, in %.

-- ask Give reported inhibition at 72 h, 10 µM value for COc1cc(N)c(F)cc1C(=O)CCC1CCN(CC2CCCCC2)CC1
-- reply 0

----------
experiment: Cytotoxicity against human MRC5 cells assessed as growth inhibition at 1 uM incubated for 72 hrs by MTS assay relative to control; format: toxicity, cell-based; details: read-out: Activity
readout-label: inhibition at 72 h, 1 µM
Units required after the number.

-- ask Give reported inhibition at 72 h, 1 µM value for COc1cc(N)c(F)cc1C(=O)CCC1CCN(CC2CCCCC2)CC1
-- reply 0%

----------
target: Cytochrome P450 2C19 (Homo sapiens)
Sequence (P33261 whole entry): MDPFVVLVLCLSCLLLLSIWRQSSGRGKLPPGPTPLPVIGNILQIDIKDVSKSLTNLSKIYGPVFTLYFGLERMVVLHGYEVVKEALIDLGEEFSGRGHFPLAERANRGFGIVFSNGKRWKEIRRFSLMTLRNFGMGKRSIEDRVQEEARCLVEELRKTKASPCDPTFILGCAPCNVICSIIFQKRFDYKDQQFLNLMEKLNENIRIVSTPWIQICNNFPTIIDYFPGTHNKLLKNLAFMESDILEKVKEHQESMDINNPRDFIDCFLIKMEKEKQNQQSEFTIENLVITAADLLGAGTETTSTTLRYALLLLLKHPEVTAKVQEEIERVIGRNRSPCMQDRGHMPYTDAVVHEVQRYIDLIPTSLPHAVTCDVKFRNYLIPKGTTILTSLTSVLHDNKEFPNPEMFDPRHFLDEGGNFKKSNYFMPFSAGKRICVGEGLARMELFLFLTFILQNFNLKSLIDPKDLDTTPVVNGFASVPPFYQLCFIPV
readout-label: pIC50
One number for each entry, as −log10 of the molar value.

-- ask Give reported pIC50 value for COc1cc(N)c(F)cc1C(=O)CCC1CCN(CC2CCCCC2)CC1.O=C(O)/C=C/C(=O)O
-- reply 5.14

----------
Answer each item with its documented inhibition.
target: Acetylcholinesterase (Homo sapiens, UniProt P22303); assay: Inhibition of recombinant human erythrocyte AChE using acetyl-or butyrylthiocholine iodide as substrate at 1 x 10^-6M preincubated for 5 mins followed by substrate addition and measured every min for 10 mins by Ellman's method relative to control; details: dose 1.0 10^-6M, time 15.0 min
Sequence (P22303 whole entry): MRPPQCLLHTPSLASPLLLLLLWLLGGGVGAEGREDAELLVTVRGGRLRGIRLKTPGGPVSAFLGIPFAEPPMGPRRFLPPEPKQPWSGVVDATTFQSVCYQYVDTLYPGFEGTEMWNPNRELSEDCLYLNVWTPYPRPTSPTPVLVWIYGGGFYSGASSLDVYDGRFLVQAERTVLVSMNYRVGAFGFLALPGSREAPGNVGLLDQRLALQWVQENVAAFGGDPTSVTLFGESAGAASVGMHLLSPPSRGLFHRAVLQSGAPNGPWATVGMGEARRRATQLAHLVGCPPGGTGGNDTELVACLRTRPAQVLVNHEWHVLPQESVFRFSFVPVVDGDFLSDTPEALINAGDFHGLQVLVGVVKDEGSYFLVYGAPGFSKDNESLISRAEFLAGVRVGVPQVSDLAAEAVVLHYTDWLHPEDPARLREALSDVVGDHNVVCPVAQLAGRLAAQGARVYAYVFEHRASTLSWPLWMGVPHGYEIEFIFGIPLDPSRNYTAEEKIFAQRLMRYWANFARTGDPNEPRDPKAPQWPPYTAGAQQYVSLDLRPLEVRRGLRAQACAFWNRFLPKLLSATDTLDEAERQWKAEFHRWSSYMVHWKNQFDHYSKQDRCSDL
One number for each entry, in %.

Answered cases to consult:
- query-smiles: "CCOc1cc(N)c(I)cc1C(=O)CCC1CCN(CC2CCCCC2)CC1"
  test-result: 51
- query-smiles: "Nc1ccc(C(=O)CCC2CCN(CC3CCCCC3)CC2)cc1Cl"
  test-result: 96
- query-smiles: "CC(=O)Nc1cc(O)c(C(=O)CCC2CCN(CC3CCCCC3)CC2)cc1Cl"
  test-result: 94
- query-smiles: "COc1cc(N)c(F)cc1C(=O)CCC1CCN(CC2CCCCC2)CC1"
  test-result: 96
- query-smiles: "CCOc1cc(N)ccc1C(=O)CCC1CCN(CC2CCCCC2)CC1"
  test-result: 93

Kindly review the next compound as well.
-- ask Give reported inhibition value for COc1c(C(=O)CCC2CCN(CC3CCCCC3)CC2)cc(F)c(N)c1Br
-- reply 85

----------
assay: Thermodynamic solubility of compound by classical shake-flask method; format: physicochemical; settings: read-out: Therm_solubility
readout-label: solubility thermodynamic (µM)
Answers are plain numbers, in µM.

-- ask Give reported solubility thermodynamic value for COc1cc(N)c(F)cc1C(=O)CCC1CCN(CC2CCCCC2)CC1
-- reply 444

----------
assay: Intrinsic solubility of the compound at pH 12 by classical shake-flask method; type: physicochemical; conditions: buffer
readout-label: solubility thermodynamic (µM)
Give bare numbers, in µM.

-- ask Give reported solubility thermodynamic value for COc1cc(N)c(F)cc1C(=O)CCC1CCN(CC2CCCCC2)CC1
-- reply 2

----------
target: 5-hydroxytryptamine receptor 4 (Homo sapiens, UniProt Q13639); assay: Inhibition of human recombinant 5HT4 receptor at 1 x 10^-6M incubated for 60 mins relative to control; conditions: dose 1.0 10^-6M
readout-label: inhibition (%)
Answers are plain numbers, in %.

Answered cases to consult:
- query-smiles: "COc1c(C(=O)CCC2CCN(CC3CCCCC3)CC2)cc(F)c(N)c1Br"
  inhibition, %: 80
- query-smiles: "Nc1ccc(C(=O)CCC2CCN(CC3CCCCC3)CC2)cc1Cl"
  inhibition, %: 97
- query-smiles: "COc1cc(O)c(Cl)cc1C(=O)CCC1CCN(CC2CCCCC2)CC1"
  inhibition, %: 76
- query-smiles: "COc1cc(N)ccc1C(=O)CCC1CCN(CC2CCCCC2)CC1"
  inhibition, %: 96
- query-smiles: "CCOc1cc(N)c(Cl)cc1C(=O)CCC1CCN(CC2CCCCC2)CC1"
  inhibition, %: 103

# return inhibition for each item in the list
1. COc1cc(N)c(Br)cc1C(=O)CCC1CCN(CC2CCCCC2)CC1
2. Nc1ccc(C(=O)CCC2CCN(CC3CCCCC3)CC2)cc1
3. COc1cc(N)c(F)cc1C(=O)CCC1CCN(CC2CCCCC2)CC1
4. CCOc1cc(N)ccc1C(=O)CCC1CCN(CC2CCCCC2)CC1

-- reply
[105, 80, 102, 101]

----------
target: Cytochrome P450 2C9 (Homo sapiens, UniProt P11712)
Sequence (P11712 whole entry): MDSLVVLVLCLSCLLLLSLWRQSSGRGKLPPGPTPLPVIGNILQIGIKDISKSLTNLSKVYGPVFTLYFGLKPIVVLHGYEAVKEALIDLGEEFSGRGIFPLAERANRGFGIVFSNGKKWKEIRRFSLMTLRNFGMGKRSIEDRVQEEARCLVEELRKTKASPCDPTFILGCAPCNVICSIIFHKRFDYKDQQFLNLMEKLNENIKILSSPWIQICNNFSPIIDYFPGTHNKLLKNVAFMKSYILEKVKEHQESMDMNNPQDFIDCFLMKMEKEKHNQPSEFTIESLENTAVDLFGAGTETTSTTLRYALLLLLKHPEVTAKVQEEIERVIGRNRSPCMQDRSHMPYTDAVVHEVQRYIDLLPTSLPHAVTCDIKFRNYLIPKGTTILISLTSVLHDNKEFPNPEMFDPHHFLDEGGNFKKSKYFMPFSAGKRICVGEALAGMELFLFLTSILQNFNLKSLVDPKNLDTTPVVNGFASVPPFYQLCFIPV
pIC50: −log10 of the molar value.
readout-label: pIC50

-- ask Give reported pIC50 value for COc1cc(N)c(F)cc1C(=O)CCC1CCN(CC2CCCCC2)CC1.O=C(O)/C=C/C(=O)O
-- reply < 4.00

----------
biological target: 5-hydroxytryptamine receptor 4 (Homo sapiens); test: Inhibition of human recombinant 5HT4 receptor at 1 x 10^-6M incubated for 60 mins relative to control; conditions: dose 1.0 10^-6M
readout-label: inhibition (%)
Give bare numbers, in %.

- query-smiles: "COc1c(C(=O)CCC2CCN(CC3CCCCC3)CC2)cc(F)c(N)c1I"
  inhibition [%]: 89
- query-smiles: "O=C(CCC1CCN(CC2CCCCC2)CC1)c1ccc(O)cc1"
  inhibition [%]: 102
- query-smiles: "CC(=O)Nc1cc(O)c(C(=O)CCC2CCN(CC3CCCCC3)CC2)cc1Cl"
  inhibition [%]: 47

# return inhibition for each item in the list
1. Nc1ccc(C(=O)CCC2CCN(CC3CCCCC3)CC2)c(OCCF)c1
2. COc1cc(N)c(I)cc1C(=O)CCC1CCN(CC2CCCCC2)CC1

-- reply
1. 100
2. 103

# return inhibition for each item in the list
1. CCOc1cc(N)c(I)cc1C(=O)CCC1CCN(CC2CCCCC2)CC1
2. Nc1cc(OCCF)c(C(=O)CCC2CCN(CC3CCCCC3)CC2)cc1I
3. COc1cc(NC(C)=O)c(Cl)cc1C(=O)CCC1CCN(CC2CCCCC2)CC1

-- reply
103
101
94

Hello, the source for this data is ChEMBL document CHEMBL6092210, in case you need it.
